- target_or_test_system: SRSF protein kinase 2 (Homo sapiens)
- run_parameters: at 1 µM
metric: residual activity (%)
Give bare numbers, in %.

Observe how each entry below is paired with its result.
smiles_input=CO[C@H]1[C@@H](OC)C[C@H](C)[C@@H](OC)C2=CC(=O)C=C(NC(=O)/C(C)=C/C=C/[C@H](OC)[C@@H](OC(N)=O)/C(C)=C/[C@@H]1C)C2=O metric="residual activity" display_unit=% observed=104
smiles_input=O=C1NC(=O)/C(=C\c2ccc3nccnc3c2)S1 metric="residual activity" display_unit=% observed=96
smiles_input=COc1cc2ncnc(Nc3ccc(O)c(Br)c3)c2cc1OC metric="residual activity" display_unit=% observed=93
smiles_input=O=[N+]([O-])c1ccc(-c2nc(-c3ccc(F)cc3)c(-c3ccncc3)[nH]2)cc1 metric="residual activity" display_unit=% observed=98
smiles_input=O=C1c2ccccc2-[n+]2ccc3c([nH]c4ccccc43)c21 metric="residual activity" display_unit=% observed=101

Report residual activity for each item below.
1. Oc1ccc(Nc2nc(-c3ccc(Cl)cc3)cs2)cc1
2. O=C(Nc1cccc(Nc2nccc(Nc3cccc(C(F)(F)F)c3)n2)c1)C1CC1
3. Cc1ccc(NC2=CC(=O)c3sc(C)nc3C2=O)cc1
4. Nc1cccc(-c2cc3c(Oc4cccc(O)c4)ncnc3[nH]2)c1

116
96
98
101

Below are 4 molecules. Give each one its residual activity.
1. CC(=O)c1ccc(N2CCOCC2)cc1O
2. Cn1cnc2cc3c(Nc4cccc(Br)c4)ncnc3cc21
3. Nc1nc(Nc2ccc(S(N)(=O)=O)cc2)nn1C(=S)Nc1c(F)cccc1F
4. O=c1cc(-c2cccc3c2Sc2ccccc2S3)oc(N2CCOCC2)c1

1. 98
2. 94
3. 3
4. 107

Dear reader, for each entry below, please note its residual activity.
1. Cc1ccc(S(=O)(=O)/C=C/C#N)cc1
2. Nc1n[nH]c2nnc(-c3c(-c4ccccc4)nn4ccccc34)cc12
3. Cn1cc(/C=C2\C(=O)Nc3ccc(S(N)(=O)=O)cc32)c2ccccc21
4. NC(=O)c1ccc2[nH]c(-c3ccc(Oc4ccc(Cl)cc4)cc3)nc2c1

1: 95; 2: 100; 3: 36; 4: 81

====

- target_or_test_system: Serine/threonine-protein kinase 10 (Homo sapiens) (UniProt O94804)
- Sequence (O94804 whole entry, looked up): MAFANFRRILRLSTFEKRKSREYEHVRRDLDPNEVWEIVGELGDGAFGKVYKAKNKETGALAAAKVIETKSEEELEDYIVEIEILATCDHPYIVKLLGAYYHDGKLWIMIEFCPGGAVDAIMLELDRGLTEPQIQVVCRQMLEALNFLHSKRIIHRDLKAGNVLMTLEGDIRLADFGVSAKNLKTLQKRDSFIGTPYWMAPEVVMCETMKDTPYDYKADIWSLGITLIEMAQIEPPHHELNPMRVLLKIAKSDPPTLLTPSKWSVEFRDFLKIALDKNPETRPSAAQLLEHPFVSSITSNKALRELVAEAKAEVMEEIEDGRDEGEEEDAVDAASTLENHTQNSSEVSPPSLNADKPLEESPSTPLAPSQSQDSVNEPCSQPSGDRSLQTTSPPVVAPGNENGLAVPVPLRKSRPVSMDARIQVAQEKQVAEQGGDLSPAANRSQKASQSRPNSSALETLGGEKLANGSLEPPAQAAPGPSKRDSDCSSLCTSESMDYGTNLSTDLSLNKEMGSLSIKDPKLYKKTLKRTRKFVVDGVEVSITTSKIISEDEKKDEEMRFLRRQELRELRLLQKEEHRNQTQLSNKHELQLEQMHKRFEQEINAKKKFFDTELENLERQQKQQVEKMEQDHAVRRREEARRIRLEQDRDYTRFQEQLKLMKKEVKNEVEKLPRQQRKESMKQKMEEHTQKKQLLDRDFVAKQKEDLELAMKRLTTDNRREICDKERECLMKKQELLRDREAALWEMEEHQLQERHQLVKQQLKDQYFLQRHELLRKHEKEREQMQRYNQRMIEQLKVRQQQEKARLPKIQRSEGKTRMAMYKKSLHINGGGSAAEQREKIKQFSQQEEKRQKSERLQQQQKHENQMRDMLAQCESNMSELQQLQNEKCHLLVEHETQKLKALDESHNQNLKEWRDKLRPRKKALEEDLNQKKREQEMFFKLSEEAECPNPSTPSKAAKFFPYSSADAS
- run_parameters: at 10 µM
Binning rule for recorded residual activity: c1 = under 10%, c2 = from 10% up to 80%, c3 = 80% and over

For orientation, consider the following solved cases.
compound=Nc1ccc2ncnc(NCCc3ccc(Oc4ccccc4)cc3)c2c1 category_label=c2
compound=Nc1nc(Nc2ccc(S(N)(=O)=O)cc2)nn1C(=S)Nc1c(F)cccc1F category_label=c1
compound=CCC(=O)Nc1ccc2ncnc(Nc3cccc(Br)c3)c2c1 category_label=c2
compound=O=C1Nc2ccc(Br)cc2/C1=C\c1cc2c([nH]1)CCCC2 category_label=c2

Entry O=C1Nc2ccccc2/C1=C1/Nc2ccccc2/C1=N\OCCC(O)CO (stereo unspecified) belongs to which category? c2

Same again, this time with O=C1Nc2cc(Br)ccc2/C1=C1/Nc2ccccc2/C1=N\O c2

====

- target_or_test_system: Serine/threonine-protein kinase N2 (Homo sapiens)
- run_parameters: at 1 µM
metric: residual activity (%)
Answers are plain numbers, in %.

Field: example entries. Status: answers known.
smiles_input=O=C1NC(=O)c2cc(Nc3ccc(F)cc3)c(Nc3ccc(F)cc3)cc21 target_or_test_system="Serine/threonine-protein kinase N2 (Homo sapiens)" metric="residual activity" display_unit=% observed=90
smiles_input=c1ccc(-c2n[nH]cc2-c2ccnc3ccccc23)nc1 target_or_test_system="Serine/threonine-protein kinase N2 (Homo sapiens)" metric="residual activity" display_unit=% observed=89
smiles_input=Cc1ccc(NC2=CC(=O)c3sc(C)nc3C2=O)cc1 target_or_test_system="Serine/threonine-protein kinase N2 (Homo sapiens)" metric="residual activity" display_unit=% observed=93

Quick batch: residual activity for everything below.
1. Nc1n[nH]c2nnc(-c3c(-c4ccccc4)nn4ccccc34)cc12
2. CC(=O)O/N=C1\C(=C2\C(=O)Nc3cc(Br)ccc32)Nc2ccccc21
3. Oc1c2ccccc2c2c3c(cccc13)N=N2

91
98
74

Look up residual activity for the entries below, preserving their order.
1. CO[C@H]1[C@@H](OC)C[C@H](C)[C@@H](OC)C2=CC(=O)C=C(NC(=O)/C(C)=C/C=C/[C@H](OC)[C@@H](OC(N)=O)/C(C)=C/[C@@H]1C)C2=O
2. CNc1cc2c(Nc3cccc(Br)c3)ncnc2cn1

[111, 84]
